target: PI3K alpha (Homo sapiens, UniProt P42336); assay: PI3K-alpha Fluorescence Polarization Assay; type: biochemical
Sequence (P42336 whole entry, species assumed): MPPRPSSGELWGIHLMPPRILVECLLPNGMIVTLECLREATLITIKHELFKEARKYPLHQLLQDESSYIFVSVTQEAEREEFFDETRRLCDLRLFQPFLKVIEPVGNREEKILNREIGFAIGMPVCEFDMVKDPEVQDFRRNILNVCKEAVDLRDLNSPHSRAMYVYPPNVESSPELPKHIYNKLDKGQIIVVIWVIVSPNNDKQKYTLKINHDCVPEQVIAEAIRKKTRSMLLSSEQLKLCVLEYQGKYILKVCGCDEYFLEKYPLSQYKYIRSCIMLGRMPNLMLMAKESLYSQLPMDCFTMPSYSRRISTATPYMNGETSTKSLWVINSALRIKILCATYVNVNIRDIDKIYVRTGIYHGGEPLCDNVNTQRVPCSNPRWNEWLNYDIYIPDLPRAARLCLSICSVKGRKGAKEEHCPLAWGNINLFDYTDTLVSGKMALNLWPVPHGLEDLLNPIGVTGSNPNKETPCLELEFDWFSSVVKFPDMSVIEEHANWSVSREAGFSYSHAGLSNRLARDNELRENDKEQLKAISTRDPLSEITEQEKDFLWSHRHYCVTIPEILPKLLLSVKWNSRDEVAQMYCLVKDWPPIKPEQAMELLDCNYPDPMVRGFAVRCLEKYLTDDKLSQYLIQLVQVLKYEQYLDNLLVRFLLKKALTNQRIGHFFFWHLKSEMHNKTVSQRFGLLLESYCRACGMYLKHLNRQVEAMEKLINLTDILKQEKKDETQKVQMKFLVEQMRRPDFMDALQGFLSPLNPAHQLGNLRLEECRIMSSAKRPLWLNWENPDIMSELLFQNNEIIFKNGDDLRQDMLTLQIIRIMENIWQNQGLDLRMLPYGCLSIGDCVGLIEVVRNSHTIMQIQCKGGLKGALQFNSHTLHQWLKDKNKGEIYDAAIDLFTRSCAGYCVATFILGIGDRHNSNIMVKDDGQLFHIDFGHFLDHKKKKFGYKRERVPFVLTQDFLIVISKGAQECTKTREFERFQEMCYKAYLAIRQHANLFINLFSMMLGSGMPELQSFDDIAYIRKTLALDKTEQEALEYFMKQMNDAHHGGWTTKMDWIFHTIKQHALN
Sequence (P27986 whole entry partner, species assumed): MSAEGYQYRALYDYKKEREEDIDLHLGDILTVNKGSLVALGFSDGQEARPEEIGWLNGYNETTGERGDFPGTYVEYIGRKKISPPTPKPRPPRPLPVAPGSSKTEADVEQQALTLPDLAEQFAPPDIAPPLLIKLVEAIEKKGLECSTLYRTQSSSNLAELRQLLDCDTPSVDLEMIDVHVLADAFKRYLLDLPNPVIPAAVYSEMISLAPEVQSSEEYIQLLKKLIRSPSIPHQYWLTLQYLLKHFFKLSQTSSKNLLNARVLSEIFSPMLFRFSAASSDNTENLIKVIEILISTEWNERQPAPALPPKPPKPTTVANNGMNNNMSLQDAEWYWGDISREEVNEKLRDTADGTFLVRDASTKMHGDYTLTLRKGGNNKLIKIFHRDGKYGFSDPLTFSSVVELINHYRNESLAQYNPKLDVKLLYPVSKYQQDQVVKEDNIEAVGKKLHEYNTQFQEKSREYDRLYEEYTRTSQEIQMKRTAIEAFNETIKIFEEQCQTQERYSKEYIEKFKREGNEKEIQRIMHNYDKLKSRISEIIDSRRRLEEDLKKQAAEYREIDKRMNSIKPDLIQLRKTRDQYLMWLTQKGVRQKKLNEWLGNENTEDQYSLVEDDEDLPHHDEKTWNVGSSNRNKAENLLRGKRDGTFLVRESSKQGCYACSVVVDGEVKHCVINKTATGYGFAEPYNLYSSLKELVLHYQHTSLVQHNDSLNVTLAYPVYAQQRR
So I've got a bunch of compounds here, and I need their pIC50 values.
Hey, just a heads up that pIC50 is the negative log base 10 of the concentration in molar.

Data request: Request: pIC50, test system PI3K alpha (Homo sapiens, UniProt P42336), entry `COc1ccc2c(c1)c(/C=C1\Oc3cc(O)cc(OC(=O)N(C)C)c3C1=O)cn2CCCN(C)C`
Data returned: 5.23

Data request: Here is the next compound: `COc1ccc2c(c1)c(/C=C1\Oc3cc(OC(=O)N(c4ccccc4)c4ccccc4)cc(OC(=O)N(c4ccccc4)c4ccccc4)c3C1=O)c(C)n2CCN1CCN(C)CC1`
Data returned: 6.00

Data request: Continue with `CCOC(=O)CNC(=O)Oc1ccc2c(c1)O/C(=C\c1cn(CCCN(C)C)c3ccc(OC)cc13)C2=O`
Data returned: 7.07

Data request: Same read-out for `CCOP(=O)(OCC)Oc1ccc2c(c1)O/C(=C\c1c(-c3ccccc3)[nH]c3ccc(OC)cc13)C2=O` ?
Data returned: 5.25

Data request: Okay, and `COc1ccc2[nH]c(-c3ccccc3)c(/C=C3\Oc4cc(OP(=O)(O)c5ccccc5)ccc4C3=O)c2c1` ?
Data returned: 6.97

Data request: Next: `CCOP(=O)(OCC)Oc1cc2c(c(OP(=O)(OCC)OCC)c1)C(=O)/C(=C/c1c(-c3ccccc3)[nH]c3ccc(OC)cc13)O2`
Data returned: 4.96

Data request: Similarly, `CCOC(=O)CNC(=O)Oc1cc(OC(=O)NCC(=O)OCC)c2c(c1)O/C(=C\c1cn(CCCN(C)C)c3ccc(OC)cc13)C2=O` ?
Data returned: 7.55

* * *

assay: Buffer Stability (37° C.); conditions: pH 9
measuredProperty: Buffer Stability (37° C.) % Remaining (at 16-23 hours) pH 9 (%)
Quick reminder: number only, in %, skip the unit.

Data request: Record request: Buffer Stability (37° C.) % Remaining (at 16-23 hours) pH 9 value, item `COc1ccc2c(c1)c(/C=C1\Oc3cc(OC(=O)N(C)C)cc(OC(=O)N(C)C)c3C1=O)cn2CCCN(C)C`
Data returned: 91

Data request: # iterate: `COc1ccc2c(c1)c(/C=C1\Oc3cc(OC(=O)CC(C)C)cc(OC(=O)CC(C)C)c3C1=O)cn2CCCN(C)C`
Data returned: 0

Data request: Another molecule: `COc1ccc2c(c1)c(/C=C1\Oc3cc(OC(=O)c4ccccc4)cc(OC(=O)c4ccccc4)c3C1=O)c(C)n2CCN1CCN(C)CC1`
Data returned: 0

Data request: Next molecule up: `COc1ccc2[nH]c(-c3ccccc3)c(/C=C3\Oc4cc(OC(=O)N(c5ccccc5)c5ccccc5)cc(OC(=O)N(c5ccccc5)c5ccccc5)c4C3=O)c2c1`
Data returned: 89

Data request: What about `COc1ccc2c(c1)c(/C=C1\Oc3cc(OC(=O)c4ccccc4)cc(OC(=O)c4ccccc4)c3C1=O)cn2CCCN(C)C` ?
Data returned: 0

Data request: Repeat with `COC(=O)Oc1cc(OC(=O)OC)c2c(c1)O/C(=C\c1c(-c3ccccc3)[nH]c3ccc(OC)cc13)C2=O`
Data returned: 0

Data request: Item: `COc1ccc2c(c1)c(/C=C1\Oc3cc(OC(=O)N(C)c4ccccc4)cc(OC(=O)N(C)c4ccccc4)c3C1=O)cn2CCCN(C)C`
Data returned: 100

Data request: Then what about the molecule `COc1ccc2c(c1)c(/C=C1\Oc3cc(OC(=O)N(C)c4ccccc4)ccc3C1=O)c(C)n2CCN1CCN(C)CC1` ?
Data returned: 96

Data request: Also need `COc1ccc2c(c1)c(/C=C1\Oc3cc(OC(=O)N(C)C)cc(OC(=O)N(C)C)c3C1=O)c(C)n2CCN1CCN(C)CC1` , thanks.
Data returned: 90

Data request: Then `COc1ccc2[nH]c(-c3ccccc3)c(/C=C3\Oc4cc(OC(=O)N(c5ccccc5)c5ccccc5)ccc4C3=O)c2c1` ?
Data returned: 95

Data request: Consider next the molecule `COc1ccc2c(c1)c(/C=C1\Oc3cc(O)cc(O)c3C1=O)c(C)n2CCN1CCN(C)CC1` in the same way.
Data returned: 79

Data request: Ok, now `COc1ccc2[nH]c(-c3ccccc3)c(/C=C3\Oc4cc(OC(=O)C(C)(C)C)cc(OC(=O)C(C)(C)C)c4C3=O)c2c1`
Data returned: 0

Data request: Now try `COc1ccc2[nH]c(-c3ccccc3)c(/C=C3\Oc4cc(OC(=O)N(C)C)ccc4C3=O)c2c1` .
Data returned: 99

Data request: Then what about the molecule `COc1ccc2[nH]c(-c3ccccc3)c(/C=C3\Oc4cc(OC(=O)Oc5ccccc5)cc(OC(=O)Oc5ccccc5)c4C3=O)c2c1` ?
Data returned: 0

Data request: Now consider `COc1ccc2c(c1)c(/C=C1\Oc3cc(OC(=O)N(C(C)C)C(C)C)cc(OC(=O)N(C(C)C)C(C)C)c3C1=O)cn2CCCN(C)C` .
Data returned: 100

Data request: Again, but for `CN(C)C(=O)Oc1cc(OC(=O)N(C)C)c2c(c1)O/C(=C\c1cn(C)c3cccc(-c4ccccc4)c13)C2=O`
Data returned: 100

Data request: Also `COc1ccc2[nH]c(-c3ccccc3)c(/C=C3\Oc4cc(OC(=O)c5ccccc5)ccc4C3=O)c2c1` , if possible.
Data returned: 0

Data request: Next entry: `COc1ccc2[nH]c(-c3ccccc3)c(/C=C3\Oc4cc(OC(=O)OC(C)C)cc(OC(=O)OC(C)C)c4C3=O)c2c1`
Data returned: 0

Data request: Also need `COc1ccc2c(c1)c(/C=C1\Oc3cc(O)cc(O)c3C1=O)cn2CCCN(C)C` , thanks.
Data returned: 94

Data request: Quick one: `COc1ccc2c(c1)c(/C=C1\Oc3cc(OC(=O)N(C(C)C)C(C)C)ccc3C1=O)c(C)n2CCN1CCN(C)CC1`
Data returned: 96

Data request: Please answer likewise for `COc1ccc2[nH]c(-c3ccccc3)c(/C=C3\Oc4cc(OC(C)=O)cc(OC(C)=O)c4C3=O)c2c1`
Data returned: 0

Data request: Same question for `COc1ccc2[nH]c(-c3ccccc3)c(/C=C3\Oc4cc(O)ccc4C3=O)c2c1` please.
Data returned: 99

* * *

test: Buffer Stability (37° C.); conditions: pH 1
measuredProperty: Buffer Stability (37° C.) % Remaining (at 16-23 hours) pH 1 (%)
Report only the number, with the unit % understood.

Data request: I am curious: what Buffer Stability (37° C.) % Remaining (at 16-23 hours) pH 1 value has been reported for `COc1ccc2[nH]c(-c3ccccc3)c(/C=C3\Oc4cc(OC(=O)Oc5ccccc5)ccc4C3=O)c2c1` ?
Data returned: 104

Data request: Another: `COc1ccc2c(c1)c(/C=C1\Oc3cc(OC(=O)N(C(C)C)C(C)C)cc(OC(=O)N(C(C)C)C(C)C)c3C1=O)cn2CCCN(C)C`
Data returned: 100

Data request: Can you check `COc1ccc2c(c1)c(/C=C1\Oc3cc(OC(=O)N(C)C)cc(OC(=O)N(C)C)c3C1=O)cn2CCCN(C)C` next?
Data returned: 100

Data request: Now try `COc1ccc2[nH]c(-c3ccccc3)c(C=C3Oc4cc(O)cc(O)c4C3=O)c2c1` .
Data returned: 97

* * *

Would you kindly list PAMPA Pe for each of these molecules?
test: PAMPA permeability pH 7.4

Data request: Data request, read-out PAMPA Pe, for `COc1ccc2c(c1)c(/C=C1\Oc3cc(OC(=O)c4ccccc4)cc(OC(=O)c4ccccc4)c3C1=O)cn2CCCN(C)C`
Data returned: 0 10e−6 cm/s

Data request: Let us now turn to `Cn1cc(/C=C2\Oc3cc(O)cc(O)c3C2=O)c2c(-c3ccccc3)cccc21`
Data returned: 0.04 10e−6 cm/s

Data request: Now this one: `COc1ccc2[nH]c(-c3ccccc3)c(/C=C3\Oc4cc(OC(=O)Oc5ccccc5)ccc4C3=O)c2c1`
Data returned: 0 10e−6 cm/s

Data request: Follow-up item: `COc1ccc2c(c1)c(/C=C1\Oc3cc(OC(=O)N(C)c4ccccc4)cc(OC(=O)N(C)c4ccccc4)c3C1=O)cn2CCCN(C)C`
Data returned: 0 10e−6 cm/s

Data request: Same question, `COc1ccc2[nH]c(-c3ccccc3)c(/C=C3\Oc4cc(OC(=O)c5ccccc5)ccc4C3=O)c2c1` this time
Data returned: 0 10e−6 cm/s

Data request: Similarly, `COc1ccc2c(c1)c(/C=C1\Oc3cc(OC(=O)N(C(C)C)C(C)C)cc(OC(=O)N(C(C)C)C(C)C)c3C1=O)c(C)n2CCN1CCN(C)CC1` ?
Data returned: 0.05 10e−6 cm/s

Data request: Continue with `COc1ccc2c(c1)c(/C=C1\Oc3cc(OC(=O)N4CCN(Cc5ccccc5)CC4)cc(OC(=O)N4CCN(Cc5ccccc5)CC4)c3C1=O)cn2CCCN(C)C`
Data returned: 0 10e−6 cm/s
